- Target under test: Wild type EGFR in A431 cells (Homo sapiens)
- Sequence (P00533 25-1210): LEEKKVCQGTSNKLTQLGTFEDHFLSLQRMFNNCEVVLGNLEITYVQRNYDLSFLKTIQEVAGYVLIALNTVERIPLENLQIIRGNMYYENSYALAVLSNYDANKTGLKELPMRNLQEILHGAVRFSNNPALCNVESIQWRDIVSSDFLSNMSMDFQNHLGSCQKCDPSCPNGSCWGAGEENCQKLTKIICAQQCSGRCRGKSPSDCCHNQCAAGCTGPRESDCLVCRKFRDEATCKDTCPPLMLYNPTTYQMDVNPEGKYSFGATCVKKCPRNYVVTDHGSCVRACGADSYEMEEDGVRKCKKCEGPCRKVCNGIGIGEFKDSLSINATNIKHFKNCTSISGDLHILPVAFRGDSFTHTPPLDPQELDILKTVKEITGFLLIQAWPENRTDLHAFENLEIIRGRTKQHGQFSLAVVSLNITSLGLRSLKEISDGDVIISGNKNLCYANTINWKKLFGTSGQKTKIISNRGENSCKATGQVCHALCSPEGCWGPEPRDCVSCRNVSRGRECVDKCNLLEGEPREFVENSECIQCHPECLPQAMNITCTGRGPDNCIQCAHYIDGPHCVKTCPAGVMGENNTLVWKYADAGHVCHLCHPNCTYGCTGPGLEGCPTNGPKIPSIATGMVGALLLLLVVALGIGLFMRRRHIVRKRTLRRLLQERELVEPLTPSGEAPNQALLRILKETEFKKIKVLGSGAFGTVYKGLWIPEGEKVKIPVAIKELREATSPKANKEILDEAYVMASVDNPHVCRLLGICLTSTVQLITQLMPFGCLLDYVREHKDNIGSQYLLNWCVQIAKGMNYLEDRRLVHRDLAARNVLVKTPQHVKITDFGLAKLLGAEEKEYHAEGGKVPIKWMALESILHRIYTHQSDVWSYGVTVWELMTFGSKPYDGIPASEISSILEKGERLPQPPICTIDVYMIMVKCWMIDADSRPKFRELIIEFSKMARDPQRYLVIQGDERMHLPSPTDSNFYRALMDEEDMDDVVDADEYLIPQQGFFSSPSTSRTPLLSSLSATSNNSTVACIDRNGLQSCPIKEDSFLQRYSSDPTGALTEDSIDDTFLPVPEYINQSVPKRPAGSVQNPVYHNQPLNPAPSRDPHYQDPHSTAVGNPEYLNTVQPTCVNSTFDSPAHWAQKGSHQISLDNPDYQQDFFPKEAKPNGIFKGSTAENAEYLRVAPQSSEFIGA
- Condition info: WT (A431) IC50 nM, cellular EGFR autophosphorylation, A431, 2 h treatment then EGF stimulation 10 min
Readout label: IC50 (nM)

P: C=CC(=O)Nc1cc(Nc2nccc(-c3cc4c(C)c[nH]c4c(C#N)n3)n2)c(OC)cc1N(C)CCN(C)C
Q: C=CC(=O)Nc1cc(Nc2nccc(-n3nc(N(C)C)c4ncccc43)n2)c(OC(F)F)cc1N(C)CCN(C)C
**Query** Given the listed items, does P or Q have the lesser reported IC50? Give the label of your selection.
**Result** P
(P: 63.1 nM, Q: 92.8 nM)

====

- Test protocol: Mouse in vivo PK study
- Condition info: mouse, plasma; male CD1 mice, 1 mg/kg IV; read-out: T1/2 (IV) (converted)
Where a name gives a salt, the structure may show the parent alone.
Readout label: half-life (h)

Example entries begin here.
compound="C=CC(=O)Nc1cc(Nc2nccc(-c3cnc4c(c3)c(C)cn4C)n2)c(OC)cc1N(C)CCN(C)C [Example 11]" readout_label=half-life result_number=1.1
compound="[2H]C([2H])([2H])N(CCN(C)c1cc(OC)c(Nc2nccc(-c3cc(C#N)c4c(c3)c(C)cn4C)n2)cc1NC(=O)C=C)C([2H])([2H])[2H] [Example 27, mesylate]" readout_label=half-life result_number=1.76
compound="C=CC(=O)Nc1cc(Nc2nccc(-c3cc(C#N)cc4c3ccn4C)n2)c(OC)cc1N(C)CCN(C)C [Example 4]" readout_label=half-life result_number=0.576

1: C=CC(=O)Nc1cc(Nc2nccc(-c3cc(C#N)cc4c3cnn4C)n2)c(OC)cc1N(C)CCN(C)C [Example 9]
2: C=CC(=O)Nc1cc(Nc2nccc(-c3cnc4c(c3)c(Cl)cn4C)n2)c(OC)cc1N(C)CCN(C)C [Example 13]
3: C=CC(=O)Nc1cc(Nc2nccc(-n3nc(N(C)C)c4cc(Cl)sc43)n2)c(OC)cc1N(C)CCN(C)C [Example 6]
**Query** Rank descending by half-life. Write the labels in rank order as requested.
**Result** 2, 3, 1
(2: 1.52 h, 3: 0.92 h, 1: 0.53 h)

====

- Target under test: L858R/T790M double mutant EGFR in H1975 cells (Homo sapiens, UniProt P00533, L858R/T790M)
- Construct: endogenous in cells
- Sequence (P00533 25-1210 T790M/L858R): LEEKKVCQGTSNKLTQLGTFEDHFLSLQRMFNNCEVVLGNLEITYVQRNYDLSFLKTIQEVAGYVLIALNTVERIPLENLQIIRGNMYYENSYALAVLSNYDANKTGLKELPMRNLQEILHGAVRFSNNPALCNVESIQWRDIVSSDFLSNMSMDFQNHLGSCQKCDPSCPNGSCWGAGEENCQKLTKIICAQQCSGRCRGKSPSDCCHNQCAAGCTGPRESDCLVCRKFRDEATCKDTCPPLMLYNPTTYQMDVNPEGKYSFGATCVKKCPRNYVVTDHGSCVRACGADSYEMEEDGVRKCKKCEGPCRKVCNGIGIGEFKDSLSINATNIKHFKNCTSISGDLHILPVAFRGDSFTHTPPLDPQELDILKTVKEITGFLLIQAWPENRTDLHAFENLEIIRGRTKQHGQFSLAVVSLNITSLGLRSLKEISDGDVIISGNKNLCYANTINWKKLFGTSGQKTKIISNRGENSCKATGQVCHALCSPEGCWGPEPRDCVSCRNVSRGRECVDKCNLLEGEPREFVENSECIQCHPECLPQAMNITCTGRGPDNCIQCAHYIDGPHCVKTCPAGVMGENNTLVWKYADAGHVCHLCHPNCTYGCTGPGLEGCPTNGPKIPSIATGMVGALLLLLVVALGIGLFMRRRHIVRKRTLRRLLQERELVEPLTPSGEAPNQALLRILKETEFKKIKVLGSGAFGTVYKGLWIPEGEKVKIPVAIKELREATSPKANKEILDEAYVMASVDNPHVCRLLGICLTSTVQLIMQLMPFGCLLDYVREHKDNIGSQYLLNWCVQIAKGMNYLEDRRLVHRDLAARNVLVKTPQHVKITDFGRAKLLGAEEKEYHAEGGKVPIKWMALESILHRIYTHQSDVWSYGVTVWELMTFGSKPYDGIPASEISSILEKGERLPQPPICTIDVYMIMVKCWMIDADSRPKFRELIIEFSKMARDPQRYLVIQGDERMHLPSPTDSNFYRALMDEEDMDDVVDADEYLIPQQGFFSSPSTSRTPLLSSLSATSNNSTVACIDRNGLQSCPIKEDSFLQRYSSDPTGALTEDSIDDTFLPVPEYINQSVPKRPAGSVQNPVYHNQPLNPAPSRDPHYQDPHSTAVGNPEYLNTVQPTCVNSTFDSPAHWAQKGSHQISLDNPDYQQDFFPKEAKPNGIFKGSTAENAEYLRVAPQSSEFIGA
- Test protocol: L858R/T790M double mutant H1975 autophosphorylation inhibition assay (ELISA)
- Condition info: cellular EGFR autophosphorylation, H1975, 2 h treatment; read-out: DM (H1975) IC50
pIC50: −log10 of the molar value.
Readout label: pIC50

molecule="C=CC(=O)Nc1cc(Nc2nccc(-n3nc(NCC)c4ncccc43)n2)c(OCC(F)F)cc1N(C)CCN(C)C [Example 22]" target_under_test="L858R/T790M double mutant EGFR in H1975 cells (Homo sapiens, UniProt P00533, L858R/T790M)" readout_label=pIC50 result_number=8.34
molecule="C=CC(=O)Nc1cc(Nc2nccc(-n3nc(N(C)C)c4ccccc43)n2)c(OC(F)F)cc1N(C)CCN(C)C [Example 18]" target_under_test="L858R/T790M double mutant EGFR in H1975 cells (Homo sapiens, UniProt P00533, L858R/T790M)" readout_label=pIC50 result_number=8.40
molecule="C=CC(=O)Nc1cc(Nc2nccc(-n3nc(N(C)C)c4ncccc43)n2)c(OCC(F)F)cc1N(C)CCN(C)C [Example 21]" target_under_test="L858R/T790M double mutant EGFR in H1975 cells (Homo sapiens, UniProt P00533, L858R/T790M)" readout_label=pIC50 result_number=7.91

1: C=CC(=O)Nc1cc(Nc2nccc(-c3ccc4c(c3)c(C)cn4C)n2)c(OC)cc1N(C)CCN(C)C [Example 12]
2: C=CC(=O)Nc1cc(Nc2nccc(-c3cc(C#N)cc4c3ccn4C)n2)c(OC)cc1N(C)CCN(C)C [Example 4]
**Query** I'm curious whether 1 or 2 has the smaller pIC50 number. Which is it? Refer to your chosen item by its label in the answer.
**Result** 1
(1: 8.11, 2: 8.70)

====

- Target under test: hERG channel (HEK 293 cell line stably expressing hERG channel) (Homo sapiens, UniProt Q12809)
- Sequence (Q12809 whole entry): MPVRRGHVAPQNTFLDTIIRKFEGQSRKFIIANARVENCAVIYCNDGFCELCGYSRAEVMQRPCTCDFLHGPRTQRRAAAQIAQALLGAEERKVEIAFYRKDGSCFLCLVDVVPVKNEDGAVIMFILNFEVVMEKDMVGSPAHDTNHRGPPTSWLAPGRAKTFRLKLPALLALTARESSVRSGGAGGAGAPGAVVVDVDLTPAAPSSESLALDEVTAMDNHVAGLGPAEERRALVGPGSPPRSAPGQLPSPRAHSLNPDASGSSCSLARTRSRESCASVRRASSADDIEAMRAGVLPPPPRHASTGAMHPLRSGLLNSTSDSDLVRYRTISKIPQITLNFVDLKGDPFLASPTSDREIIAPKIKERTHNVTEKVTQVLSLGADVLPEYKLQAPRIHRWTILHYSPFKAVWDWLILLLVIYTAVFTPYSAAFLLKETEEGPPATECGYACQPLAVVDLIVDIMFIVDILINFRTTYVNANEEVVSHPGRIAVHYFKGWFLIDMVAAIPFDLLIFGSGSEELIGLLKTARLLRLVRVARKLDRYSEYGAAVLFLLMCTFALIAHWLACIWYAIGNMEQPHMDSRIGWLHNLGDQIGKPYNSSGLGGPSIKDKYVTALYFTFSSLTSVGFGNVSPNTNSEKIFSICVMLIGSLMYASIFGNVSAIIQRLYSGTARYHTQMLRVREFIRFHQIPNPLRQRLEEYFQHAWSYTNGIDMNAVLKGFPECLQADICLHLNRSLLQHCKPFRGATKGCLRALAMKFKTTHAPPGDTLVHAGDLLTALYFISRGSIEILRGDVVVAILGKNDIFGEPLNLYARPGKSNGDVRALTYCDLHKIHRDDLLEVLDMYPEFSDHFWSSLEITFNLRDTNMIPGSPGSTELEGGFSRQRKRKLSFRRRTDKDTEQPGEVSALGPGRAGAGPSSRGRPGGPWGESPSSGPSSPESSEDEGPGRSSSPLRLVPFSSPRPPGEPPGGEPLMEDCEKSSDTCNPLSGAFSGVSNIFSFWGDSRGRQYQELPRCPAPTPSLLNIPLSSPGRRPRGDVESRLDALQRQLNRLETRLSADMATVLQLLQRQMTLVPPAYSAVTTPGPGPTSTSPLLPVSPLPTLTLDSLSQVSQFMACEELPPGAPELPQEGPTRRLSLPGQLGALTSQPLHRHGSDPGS
Listed next: entries and their corresponding pIC50.
Scale explanation: pIC50 corresponds to minus log10 of a concentration expressed in moles per litre.

smiles_data=C=CC(=O)Nc1cc(Nc2nccc(-n3nc(N(C)C)c4ccccc43)n2)c(OC(F)F)cc1N(C)CCN(C)C result_number=5.78
smiles_data=C=CC(=O)Nc1cc(Nc2nccc(-n3nc(N(C)C)c4cc(Cl)sc43)n2)c(OC)cc1N(C)CCN(C)C result_number=5.59

**Query** Can you look up the measured pIC50 of C=CC(=O)Nc1cc(Nc2nccc(-n3nc(NCC)c4ncccc43)n2)c(OC(F)F)cc1N(C)CCN(C)C for me?
**Result** 6.30

**Query** Another compound to look at: C=CC(=O)Nc1cc(Nc2nccc(-c3cc(C#N)c4c(c3)c(C)cn4C)n2)c(OC)cc1N(C)CCN(C)C
**Result** 5.18

====

- Target under test: INSR (Homo sapiens)
- Construct: purchased CARNA BIOSCIENCE 08-142
- Sequence (P06213 1005-1382 limits assumed): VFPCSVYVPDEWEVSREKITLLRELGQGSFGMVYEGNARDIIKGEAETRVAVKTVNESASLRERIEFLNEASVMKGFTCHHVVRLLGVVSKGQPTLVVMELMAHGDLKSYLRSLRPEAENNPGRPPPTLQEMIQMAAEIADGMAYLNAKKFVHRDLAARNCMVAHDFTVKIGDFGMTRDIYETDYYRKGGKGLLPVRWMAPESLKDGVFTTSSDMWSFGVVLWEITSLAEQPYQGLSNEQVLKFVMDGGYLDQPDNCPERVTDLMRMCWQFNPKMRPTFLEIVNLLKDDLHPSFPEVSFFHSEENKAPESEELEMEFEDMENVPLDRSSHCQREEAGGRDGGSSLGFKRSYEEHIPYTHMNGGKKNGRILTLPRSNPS
- Test protocol: INSR inhibition assay (Caliper mobility shift)
- Assay type: biochemical
- Condition info: enzyme assay
Readout label: IC50 (nM)

Observe how each entry below is paired with its result.
compound="C=CC(=O)Nc1cc(Nc2nccc(-c3c[nH]c4ccccc34)n2)c(OC)cc1N(C)CCN(C)C [AZD5104, reference compound]" unit_label=nM result_number=94.8
compound=C=CC(=O)Nc1cc(Nc2nccc(-n3nc(N(C)C)c4ncccc43)n2)c(OCC(F)F)cc1N(C)CCN(C)C unit_label=nM result_number=2730
compound=C=CC(=O)Nc1cc(Nc2nccc(-n3nc(N(C)C)c4ccsc43)n2)c(OC)cc1N(C)CCN(C)C unit_label=nM result_number=2140
compound="C=CC(=O)Nc1cc(Nc2nccc(-c3cn(C)c4ccccc34)n2)c(OC)cc1N(C)CCN(C)C [AZD9291, reference compound]" unit_label=nM result_number=478
compound=C=CC(=O)Nc1cc(Nc2nccc(-n3nc(NCC)c4ncccc43)n2)c(OCC(F)F)cc1N(C)CCN(C)C unit_label=nM result_number=2530

1: C=CC(=O)Nc1cc(Nc2nccc(-c3cc(C#N)c4c(c3)c(C)cn4C)n2)c(OC)cc1N(C)CCN(C)C
2: C=CC(=O)Nc1cc(Nc2nccc(-c3cc(C#N)c4ccn(C)c4c3)n2)c(OC)cc1N(C)CCN(C)C
**Query** Of the two listed items, 1 and 2 , which carries the larger IC50 figure? Give the label of your selection.
**Result** 1
(1: 1820 nM, 2: 621 nM)

====

- Test protocol: Mouse in vivo PK study
- Condition info: mouse, plasma; male CD1 mice, 1 mg/kg IV
- Procedure: To determine the drug concentration in plasma of the compounds of the present disclosure following intravenous and oral administration in male CD 1 Mice, pharmacokinetic profile and PK parameters were obtained. Test animals: healthy male CD1 mice (body weight 20-30 g, 18 mice, free access to food and water), provided by Sibeifu laboratory. […] The drug concentration was determined by LC/MS/MS method, and the PK parameters were observed as follows.
Structures can show the parent of a compound that is named as a salt.
Readout label: clearance (mL/min/kg)

For orientation, consider the following solved cases.
molecule=C=CC(=O)Nc1cc(Nc2nccc(-c3cc(C#N)cc4c3cnn4C)n2)c(OC)cc1N(C)CCN(C)C result_number=67
molecule=C=CC(=O)Nc1cc(Nc2nccc(-c3cc(C#N)cc4c3ccn4C)n2)c(OC)cc1N(C)CCN(C)C result_number=183
molecule=C=CC(=O)Nc1cc(Nc2nccc(-c3cnc4c(c3)c(Cl)cn4C)n2)c(OC)cc1N(C)CCN(C)C result_number=99

a: [2H]C([2H])([2H])N(CCN(C)c1cc(OC)c(Nc2nccc(-c3cc(C#N)c4c(c3)c(C)cn4C)n2)cc1NC(=O)C=C)C([2H])([2H])[2H] [Example 27, mesylate]
b: C=CC(=O)Nc1cc(Nc2nccc(-c3cnc4c(c3)c(C)cn4C)n2)c(OC)cc1N(C)CCN(C)C
**Query** Sorting ascending by clearance, which comes first: a or b ? Write the label of whichever entry you select.
**Result** a
(a: 60.7 mL/min/kg, b: 114 mL/min/kg)

====

- Test protocol: Mouse in vivo PK study
- Condition info: mouse, plasma; male CD1 mice, 10 mg/kg PO
Counter-ions that a name gives are not always drawn.
Readout label: Cmax (ng/mL)

Consider the worked cases shown below.
compound="[2H]C([2H])([2H])N(CCN(C)c1cc(OC)c(Nc2nccc(-c3cc(C#N)c4c(c3)c(C)cn4C)n2)cc1NC(=O)C=C)C([2H])([2H])[2H] [Example 27, mesylate]" readout_label=Cmax unit_label=ng/mL result_number=99
compound=C=CC(=O)Nc1cc(Nc2nccc(-n3nc(N(C)C)c4cc(Cl)sc43)n2)c(OC)cc1N(C)CCN(C)C readout_label=Cmax unit_label=ng/mL result_number=117
compound=C=CC(=O)Nc1cc(Nc2nccc(-c3cc(C#N)c4c(c3)c(C)cn4C)n2)c(OC)cc1N(C)CCN(C)C readout_label=Cmax unit_label=ng/mL result_number=119
compound=C=CC(=O)Nc1cc(Nc2nccc(-c3cc(C#N)cc4c3ccn4C)n2)c(OC)cc1N(C)CCN(C)C readout_label=Cmax unit_label=ng/mL result_number=80.2

A: C=CC(=O)Nc1cc(Nc2nccc(-c3cc(C#N)cc4c3cnn4C)n2)c(OC)cc1N(C)CCN(C)C
B: C=CC(=O)Nc1cc(Nc2nccc(-c3cnc4c(c3)c(C)cn4C)n2)c(OC)cc1N(C)CCN(C)C
C: C=CC(=O)Nc1cc(Nc2nccc(-c3cnc4c(c3)c(Cl)cn4C)n2)c(OC)cc1N(C)CCN(C)C
**Query** // smallest Cmax at index 0, largest at the end Kindly provide the labels arranged according to the requested ordering.
**Result** C, B, A
(C: 63.5 ng/mL, B: 97 ng/mL, A: 159 ng/mL)
